Origin of the recorded values: PubChem BioAssay (NCI)

# Assay Name: NCI Yeast Anticancer Drug Screen. Data for the mec2-1 strain (AID 157)
# Study Conditions: S. cerevisiae mec2-1 strain, at 50.0 µM, active compounds read high
About 79,000 compounds went through this panel and 15% of them were active in at least one assay; those are over-represented in the sample as a whole.
Readout: growth inhibition (%)
Give bare numbers, in %.

Examples from the recorded data:
>>> observed_value("CCCCCCCOC(=O)COc1ccc(Cl)cc1Cl")
9.05
>>> observed_value("CC(=O)/C(=C/N1C(=O)CC(=O)NC1=S)C(=O)Nc1ccccc1")
-26.5
>>> observed_value("CC(=O)C1CC[C@@]2(C)C(CC[C@H]3[C@@H]4CCC[C@H]([C@H](C)O)[C@@]4(C)CC[C@@H]32)C1 (some centres undefined)")
0.3

Proceed to the following item.
Reported growth inhibition for `Cc1cc(N(CCC#N)CCC#N)ccc1/C(N=Nc1ccc(Cl)cc1)=N\NC(=O)c1cc(Cl)ccc1O` was -16.1

====

# Assay Name: NCI Yeast Anticancer Drug Screen. Data for the sgs1 mgt1 strain (AID 161);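 further: 0% = growth of cultures given vehicle only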
# Study Conditions: S. cerevisiae sgs1 mgt1 strain, at 50.0 µM, active compounds read high
This is part of a sample that, as a whole, favours compounds with a hit. Of some 79,000 tested, about 15% had one in any assay.
Use -10% as the dividing line for growth inhibition, with the line itself on the class 1 side and lower values as class 0.

Reported growth inhibition at or above -10%? CCC(C(N)=O)C(C)(C)C (stereo not given)
class 1

====

# Assay Name: NCI Yeast Anticancer Drug Screen. Data for the mec2-1 strain (AID 157)
# Study Conditions: S. cerevisiae mec2-1 strain, at 50.0 µM
This is part of a sample that, as a whole, favours compounds with a hit. Of some 79,000 tested, about 15% had one in any assay. Calls of active or inactive are those of the source. Cut-off read from the data, not from the text of the source: active = growth inhibition above about 70%; inactive = the rest.
Pick one and only one: active, inactive

Field: example entries. Status: answers known.
>>> cat("CC1CCCc2c(CC3CC(=O)NC(=O)C3)nc(N)nc21 (stereo not given)")
"inactive"
>>> cat("C=CCN=C1NC(=O)C(CC(=O)Nc2cccc(Cl)c2)S1 (stereo not given)")
"inactive"
>>> cat("NN1C(=O)CC(c2cccc(Cl)c2)C1=O (stereo not given)")
"inactive"
>>> cat("COc1ccc(/C=C/C(=O)c2ccc3c(c2)OCO3)cc1OC")
"inactive"

# outcome recorded in this test, key = O=C(O)C(Br)C(Br)C(=O)Nc1cccc2ccccc12 (stereo not given)
active

# outcome recorded in this test, key = `CN1CCC=C(COC(=O)C(C)(C)C)C1`
inactive

# outcome recorded in this test, key = `Cc1ccc(NC(=O)Nc2cccc(Cl)c2)cc1C`
inactive

# outcome recorded in this test, key = Cc1cc([N+](=O)[O-])ccc1NC(=O)C(Br)C(Br)C(=O)O (stereo not given)
inactive

====

# Assay Name: NCI Yeast Anticancer Drug Screen. Data for the rad50 strain (AID 155);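 further: 0% = growth of vehicle-only cultures of the same strain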
# Study Conditions: S. cerevisiae rad50 strain growth inhibition; at 50.0 µM; active compounds read high
The panel holds about 79,000 compounds, 15% with a hit somewhere; the sample as a whole holds those more often.
I'd be grateful if you could share measured growth inhibition for these entries.
Numbers only, in %.

Examples from the recorded data:
>>> observed_value("COC(=O)c1cc(C)cc(N(c2ccccc2[N+](=O)[O-])S(=O)(=O)c2ccc(C)cc2)c1C")
15.9
>>> observed_value("CCCCN(CCCC)CC(O)c1cc(-c2ccc(C(F)(F)F)cc2)nc(-c2ccc(C(F)(F)F)cc2)c1 (configuration not stated)")
25
>>> observed_value("CN(C)c1ccc(C2(c3ccc(N(C)C)cc3)NNC(=O)c3cc(N(C)C)ccc32)cc1")
21.4
>>> observed_value("CCCCCCCCCCCCSc1nc2c([nH]1)c(=O)n(C)c(=S)n2C")
-24.1

List reported growth inhibition for each of these molecules:
1. CCCCCCCCCCOc1ccc(OCCCCCCCCC)cc1
2. C[N+]([O-])(Cc1ccccc1)c1ccccc1 (configuration not stated)
3. N#CCCc1c(O)ccc2ccccc12
4. CN(C)C=Nc1c(Br)cc(Br)c2nonc12
5. CCn1c(=O)ccc2ccc(N(CCO)CCO)nc21
6. O=C(Nc1cccc(C(=O)NCCCO)c1)/C(=C/c1ccccc1)NC(=O)c1ccccc1
7. CCC(=O)OC1CCC(OC(=O)CC)CC1 (configuration not stated)

[15.5, -3.6, 38.6, -26.7, -19.9, 0, 7.3]

====

# Assay Name: NCI Yeast Anticancer Drug Screen. Data for the rad50 strain (AID 155);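 further: 0% = growth of vehicle-only cultures of the same strain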
# Study Conditions: S. cerevisiae rad50 strain growth inhibition; at 50.0 µM; active compounds read high
About 79,000 compounds went through this panel and 15% of them were active in at least one assay; those are over-represented in the sample as a whole. *1 amine or outer side, *2 acyl side, *3 side chain or, on linkers, in order; H or OH if unused. Where a SMILES comes first, the peptide text is derived from it. [ ]: non-standard residue; d: D form. X8 = C=CCC(O[*:1])C(=O)[*:2]; NMeV = CN[CH](C(=O)O)C(C)C; NMeA = CN[CH](C)C(=O)O; βAla = NCCC(=O)O
Use 10% as the dividing line for growth inhibition, with the line itself on the yes side and lower values as no.

Field: example entries. Status: answers known.
>>> cat("Cc1ccc(N=C2N=C(N3CC(C)OC(C)C3)c3ccccc32)cc1 (configuration not stated)")
"no"
>>> cat("CC(=O)n1nnc(CC#N)c1-c1ccccc1")
"yes"
>>> cat("N#CCCc1ccnc2ccccc12")
"no"
>>> cat("COc1ccc(C(CCl)(CCl)c2ccc(OC)cc2)cc1")
"yes"
>>> cat("CC1CCC(C(C)(C)O)CC1O (configuration not stated)")
"no"
>>> cat("NS(=O)(=O)c1ccccc1")
"yes"

Reported growth inhibition at or above 10%? `COC1(OC)C2(Cl)C3=CCCC=C3C1(Cl)C(Cl)=C2Cl`
yes

Reported growth inhibition at or above 10%? `Cc1nc([N+](=O)[O-])cn1CC(Cl)Cn1cc([N+](=O)[O-])nc1C`
no

Reported growth inhibition at or above 10%? `COc1ccccc1-n1c(O)c(N=Nc2ccccc2)c(=O)n(-c2ccc(C)cc2)c1=S`
yes

Reported growth inhibition at or above 10%? `Cn1c2c(c(=O)n(C)c1=O)CCC(=O)N2`
no

Reported growth inhibition at or above 10%? O=C(O)CCC1CCc2cccc(O)c2C1=O (configuration not stated)
no

Reported growth inhibition at or above 10%? `Cc1ccc(OCc2cccc(Cl)c2)cc1`
yes

Reported growth inhibition at or above 10%? `COC(=O)C(C)(C)N=CN(C)C`
no

Reported growth inhibition at or above 10%? CCC(C)C(C)(CO)CO (configuration not stated)
no

Reported growth inhibition at or above 10%? `COc1ccc(Cl)cc1NC(=O)Nc1ccc(S(N)(=O)=O)cc1`
no

Reported growth inhibition at or above 10%? CC1CN(C(=S)Nc2ccccc2)C(C)CN1CCO (configuration not stated)
yes

Reported growth inhibition at or above 10%? C=CCC1OC(=O)CCNC(=O)C(C)N(C)C(=O)C(C(C)C)N(C)C(=O)C(C(C)CC)NC(=O)C2CCCN2C1=O (configuration not stated) (cyclo([X8]PI[NMeV][NMeA][βAla]); configuration not given here)
yes

====

# Assay Name: NCI Yeast Anticancer Drug Screen. Data for the bub3 strain (AID 167)
# Study Conditions: S. cerevisiae bub3 mutant strain, at 50.0 µM, active compounds read high
Compounds without any hit were thinned out: in the full panel of roughly 79,000, 15% have a hit.
Readout: growth inhibition (%)
Give bare numbers, in %.

>>> observed_value("CC(=O)c1c(C)cc(C)nc1C")
30.6
>>> observed_value("Cc1ccc(S(=O)C(C)C(Cl)c2ccccc2)cc1 (stereo not drawn)")
11.7
>>> observed_value("c1ccc(-c2cnn3c(-c4ccccc4)cnnc23)cc1")
2.8
>>> observed_value("CN=C(NC(=S)N(C)C)N(C)C")
-14.1
>>> observed_value("COc1ccc(C2SCC(=O)N2NC(=O)c2ccc(NC(C)=O)cc2)c(OC)c1 (stereo not drawn)")
-22
>>> observed_value("CCOC(=O)c1cc(=O)[nH]c(N)n1")
10.4
>>> observed_value("Cc1ccnc(Nc2nnc(Nc3cc(C)ccn3)c3ccccc23)c1")
-3.8
>>> observed_value("CC12CC3C(CC1O2)C3(C)C (stereo not drawn)")
1.35

List reported growth inhibition for each of these compounds:
1. CN1C(=O)C23CCCN2C(=O)C1(C)SC(=N)S3 (stereo not drawn)
2. O=C(CBr)OCCC1CCCCC1
3. Cc1ccc(C(=O)c2c[nH]c(=O)[nH]c2=O)cc1
4. CC(C)OC(=O)c1ccc(NCC2=CC(=O)C=CC2=O)cc1
5. N/C(=N/O)c1cn(C2OC(CO)C(O)C2O)c2ncnc(NO)c12 (stereo not drawn)

1. 2
2. 3.05
3. -3.05
4. 46.1
5. -16.1
